TARGET UNDER TEST: Cdc42 (Homo sapiens)
Sequence (P60953 whole entry): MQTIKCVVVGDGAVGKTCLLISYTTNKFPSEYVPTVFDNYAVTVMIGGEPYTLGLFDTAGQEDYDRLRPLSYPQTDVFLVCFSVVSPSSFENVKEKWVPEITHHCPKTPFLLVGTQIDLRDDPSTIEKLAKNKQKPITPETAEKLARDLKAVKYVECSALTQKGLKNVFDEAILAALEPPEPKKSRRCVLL
PROCEDURE SUMMARY: Cdc42-GEF-assay, additional compound screening
Assay type: biochemical
Set-up: purchased Cytoskeleton Inc
SETTINGS: assay slope relative to ZCL278, normalized to batch
READOUT: % ZCL278 (with GEF) (%)
State just the number; it will be interpreted in %.

| COMPOUND | READOUT | TEST VALUE |
| --- | --- | --- |
| c1ccc(-c2nc3c(c(NCc4cn5ccsc5n4)n2)CCNC3)cc1 [ZCL1143] | % ZCL278 (with GEF) | 96.811 |
| Cc1cn(C2OC(C(O)C(N)=O)C(O)C2O)c(=O)[nH]c1=O (stereo not shown) [NSC111600] | % ZCL278 (with GEF) | 185.829 |
| O=c1[nH]cc(C2OCC(O)C(O)C2O)c(=O)[nH]1 (stereo not shown) [NSC94024] | % ZCL278 (with GEF) | 96.844 |

Ask: Please look up its % ZCL278 (with GEF): NS(=O)(=O)c1ccc(NC2OCC(O)C(O)C2O)cc1 (stereo not shown) [NSC158437]
Reply: 127.593
